Values from PubChem BioAssay (NCATS)

procedure_summary: qHTS of pediatric cancer cell lines to identify multiple opportunities for drug repurposing: Primary screen for NB-EBc1 cells (AID 1347095)
setup_conditions: NB-EBc1 neuroblastoma viability, CellTiter-Glo luminescence, 48 h; series mostly up to 46 µM
Inconclusive results are not listed. The source made the active and inactive calls. The call rests on the fitted dose curve; in most records, active means well fitted cell-killing curve with a large enough effect; inconclusive means small, poorly fitted or top-dose-only effect; inactive means no such curve, though single readings can be large or run the other way.
Outcomes: active, inactive

• CN(C)[C@@H]1C(=O)C(C(N)=O)=C(O)[C@@]2(O)C(=O)C3=C(O)c4c(O)cccc4[C@@](C)(O)[C@H]3C[C@@H]12 = inactive
• CC(C)NCC(O)c1ccccc1Cl (stereo not given) = inactive
• CCN(C(C)=O)c1cccc(-c2ccnc3c(C#N)cnn23)c1 = inactive
• CC[C@@H](CO)NC(=O)[C@@H]1C=C2c3cccc4[nH]cc(c34)C[C@H]2N(C)C1 = inactive
• CCC1(C2=NCCN2)Cc2ccccc2O1 (stereo not given) = inactive
• CC(C)CC(N(C)C)C1(c2ccc(Cl)cc2)CCC1 (stereo not given) = inactive
• CC1NCCOC1c1ccccc1 (stereo not given) = inactive
• C=C1C[C@@H]2[C@H](CC[C@]3(C)C(=O)CC[C@@H]23)[C@@]2(C)C=CC(=O)C=C12 = inactive
• c1ccc2c(c1)Nc1ccccc1S2 = inactive
• CC[N+]1(C)CCCC(OC(=O)C(O)(c2ccccc2)c2ccccc2)C1 (stereo not given) = inactive
• c1ccc(C2CC2)c(OCC2=NCCN2)c1 = inactive
• CCC(=O)C(CC(C)N(C)C)(c1ccccc1)c1ccccc1 (stereo not given) = inactive
• COC[C@@H](NC(C)=O)C(=O)NCc1ccccc1 = inactive
• CCCN1CCC[C@@H]2Cc3nc(N)ncc3C[C@H]21 = inactive
• NCC(O)c1ccc(O)cc1 (stereo not given) = inactive
• COc1ccccc1N1CCNCC1 = inactive
• Oc1cc(Cl)ccc1Oc1ccc(Cl)cc1Cl = active
• CC(C)(N)Cc1ccc(Cl)cc1 = inactive
• C#CCOC(C(=O)OCCN(C)C)(c1ccccc1)c1ccccc1 = inactive
• CC(C)=CC1C(C(=O)OCc2cccc(Oc3ccccc3)c2)C1(C)C (stereo not given) = inactive
• Clc1cccc(N2CCNCC2)c1 = inactive
• O=C1CC[C@@]2(O)[C@H]3Cc4ccc(O)c5c4[C@@]2(CCN3CC2CC2)[C@H]1O5 = inactive
• NN=C(N)N = inactive
• CCN(CC)CCOC(=O)C(O)(c1ccccc1)c1ccccc1 = inactive
• FC(F)(F)c1cccc(C2=CCN(CCc3ccc4ccccc4c3)CC2)c1 = inactive
